- ASSAY_COMMENT: gradient 5% acetonitrile 3 min, to 50% in 2 min, to 85% in 15 min, held 3 min, 100 µL/min
- MEASUREMENT_PARAMETERS: column: Zorbax Extend-C18 2.1 x 50 mm; eluents: water / acetonitrile, 0.1% formic acid
Each entry below carries its recorded RP-LC retention time.
The figure you give is taken to be in s; do not add the unit.

Cn1c(=O)c(N2CCC(C(=O)NCc3ccco3)CC2)nc2ccccc21 = 774
Cc1oc(-c2[nH]ncc2C(=O)N2CCCC2)cc1S(=O)(=O)N1CCC(C)CC1 = 746
Cc1cccc2nnc(N3CCN(C(=O)c4ccc(Cl)cc4)CC3)n12 = 629

Next molecule, RP-LC retention time to be filled in.
Exercise: Can you share its RP-LC retention time? I mean this molecule: COc1ccc(N2CC(c3noc(-c4cccc(N(C)C)c4)n3)CC2=O)cc1 (centres undefined)
Key: 983
